Catalogue of molecules with associated GI50
test system: DU145 cells; test: Cell growth inhibition bioassay (sulforhodamine B); format: cell-based, human; settings: Homo sapiens, DU-145; 48 h, SRB; read-out: GI50 in indicated cell line: DU145

- molecule: "COc1ccc(CCC(=O)c2c(O)cc(OC)cc2OC)cc1"
  GI50: "> 197 µM"
- molecule: "COc1cc(O)c(C(=O)/C=C/c2ccc3c(c2)OCO3)c(OC)c1"
  GI50: "> 190 µM"
- molecule: "C(=N/Nc1ncnc2sc3c(c12)CCCC3)/c1ccc2c(c1)OCO2"
  GI50: "> 93.8 µg/mL"
- molecule: "COc1ccc(CCC(=O)c2c(O)cc(O)cc2OC)cc1"
  GI50: "> 206 µM"
- molecule: "Fc1ccccc1/C=N\\Nc1ncnc2sc3c(c12)CCCC3"
  GI50: "> 93.8 µg/mL"

Req: May I ask what GI50 has been recorded for O=c1[nH]cc(F)c(=O)[nH]1 [Compound 5FU, 5-Fluorouracil, reference compound] ?
Resp: 15.4 µM

Req: # lookup: GI50 of COc1ccc(/C=C/C(=O)c2c(O)cc(O)cc2OC)cc1
Resp: 9 µM

Req: Which GI50 is reported for this molecule? C=CCOc1cc(OC)c(C(=O)/C=C/c2ccc3c(c2)OCO3)c(OCC=C)c1
Resp: 17.5 µM

Values were extracted from patent US9061984B2.
